Reference source for all entries: patent US12268665B2

Test: Pharmacokinetic (PK) analysis in MH-22A tumor-bearing mice (LC/MS/MS)
Type: in vivo, mouse
Conditions: mouse, plasma, oral, 50 mg/kg, 50 mg/kg in combination with anti-PD-1; read-out: plasma concentration of APG-115
Description: The quantitative LC/MS/MS analysis was conducted using an Exion HPLC system (AB Sciex, Ontario, Canada) coupled to an API 5500 mass spectrometer (AB Sciex, Ontario, Canada) equipped with an API electrospray ionization (ESI) source. The Phenomenex Titank phenyl-Hexyl column (50 mm×2.1 mm, 5 μm particle size) was used to achieved HPLC separation. The injection volume was 2 μl and the flow rate was kept constantly at 0.5 ml/min. […]
Outcome Measure: concentration at 4 h
Number first, unit second.

Answer with the recorded concentration at 4 h of CCN1[C@@H](C(=O)NC23CCC(C(=O)O)(CC2)CC3)[C@H](c2cccc(Cl)c2F)[C@]2(C(=O)Nc3cc(Cl)ccc32)C12CCCCC2 [APG-115] only. 2150 ng/mL
